Value source: PubChem BioAssay AID2314

Experiment: Cycloheximide Counterscreen for Small Molecule Inhibitors of Shiga Toxin; note: read at 38.3 µM for the half of the compounds with a filed dose; 0% is about no effect
Conditions: cell reporter, cycloheximide protein synthesis inhibition counterscreen; hits give high values
Out of some 300,000 compounds screened, about 37,000 (12%) were called active. The entries come from a sample that favours actives as a whole.
// max response lookup, one value per entry
Please give a number only; it is taken to be in %.

Cn1c(SCC(=O)c2cccs2)nnc1-c1ccco1 = 29.8
COC(=O)[C@H](Cc1ccccc1)NC(=O)[C@@H]1C[C@H]1[C@@H](NC(=O)OCc1ccccc1)c1ccccc1 = -3.05
CC1CCN(C(=O)C2CCN(S(=O)(=O)N3CCC4(CC3)OCCO4)CC2)CC1 = 5.25

query: Given CCOc1cc(-c2noc(CCCC(=O)NC3CCCCC3)n2)ccc1OC , state its recorded max response.
result: -3.29

query: Given CCOC(=O)CNC(=O)/C=C/c1c(Cl)cccc1Cl , state its recorded max response.
result: -3.14

query: Given CCCC(C)c1nnc(NC(=O)C2CC(=O)N(c3ccc(OCC)cc3)C2)s1 (centres undefined) , state its recorded max response.
result: -2.49

query: Given O=C(COC(=O)c1ccco1)NCc1ccc(Cl)cc1 , state its recorded max response.
result: 4.34
